TARGET DESC: CDK1/cyclin A (Homo sapiens, UniProt P06493)
Sequence (P06493 4-287 limits assumed): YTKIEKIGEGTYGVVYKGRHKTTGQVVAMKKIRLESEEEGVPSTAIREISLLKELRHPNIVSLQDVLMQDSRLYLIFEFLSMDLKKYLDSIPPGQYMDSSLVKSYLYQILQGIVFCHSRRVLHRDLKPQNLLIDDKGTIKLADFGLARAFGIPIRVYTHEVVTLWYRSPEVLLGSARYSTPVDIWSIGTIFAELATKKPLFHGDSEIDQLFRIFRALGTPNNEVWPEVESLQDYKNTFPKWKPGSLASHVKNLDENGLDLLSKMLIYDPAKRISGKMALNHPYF
Sequence (P20248 whole entry partner): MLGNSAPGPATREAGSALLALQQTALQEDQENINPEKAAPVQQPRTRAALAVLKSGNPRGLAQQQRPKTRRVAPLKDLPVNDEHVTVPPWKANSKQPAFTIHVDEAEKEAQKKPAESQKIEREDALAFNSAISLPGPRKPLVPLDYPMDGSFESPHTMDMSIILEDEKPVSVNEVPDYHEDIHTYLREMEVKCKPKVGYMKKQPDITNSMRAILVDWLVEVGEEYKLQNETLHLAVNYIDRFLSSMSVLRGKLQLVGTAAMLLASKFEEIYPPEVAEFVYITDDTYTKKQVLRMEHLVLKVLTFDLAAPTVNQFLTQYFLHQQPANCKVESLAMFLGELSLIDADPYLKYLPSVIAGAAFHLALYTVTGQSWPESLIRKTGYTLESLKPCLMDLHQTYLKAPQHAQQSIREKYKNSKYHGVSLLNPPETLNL
PROCEDURE SUMMARY: Kinase IC50, 33P labeled isotope method
Assay type: biochemical
COND: 20 μM ATP; read-out: IC50* CDK1/cyclin A
RESULT TYPE: IC50 (nM)

smiles_input=Cc1cc2c(Nc3c[nH]nc3C(=O)Nc3ccc(CN4CCN(C)CC4)cc3)ncnc2[nH]1 assay_value=158
smiles_input=Cc1cc2c(Nc3c[nH]nc3C(=O)Nc3ccc(CN4CCN(C)CC4)cc3)ncnc2s1 assay_value=142
smiles_input=CN1CCN(Cc2ccc(NC(=O)c3n[nH]cc3Nc3ncnc4occc34)cc2)CC1 assay_value=173
smiles_input=Cc1cc2c(Nc3c[nH]nc3C(=O)Nc3ccc(CN4CCN(C)CC4)cc3)nccc2s1 assay_value=164

----------
TARGET DESC: KDR/VEGFR2 (Homo sapiens, UniProt P35968)
Sequence (P35968 834-1162 limits assumed): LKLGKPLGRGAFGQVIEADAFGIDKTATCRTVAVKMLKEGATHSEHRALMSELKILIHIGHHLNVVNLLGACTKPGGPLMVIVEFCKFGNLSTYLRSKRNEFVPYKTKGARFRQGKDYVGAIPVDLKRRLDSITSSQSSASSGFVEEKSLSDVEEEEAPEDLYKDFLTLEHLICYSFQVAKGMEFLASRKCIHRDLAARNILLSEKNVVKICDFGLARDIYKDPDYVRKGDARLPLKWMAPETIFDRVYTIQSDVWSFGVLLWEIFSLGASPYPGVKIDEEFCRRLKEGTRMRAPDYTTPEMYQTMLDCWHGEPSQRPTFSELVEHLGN
PROCEDURE SUMMARY: Kinase IC50, 33P labeled isotope method
Assay type: biochemical
pIC50: −log10 of the molar value.
RESULT TYPE: pIC50

compound="CN1CCN(Cc2ccc(NC(=O)c3n[nH]cc3Nc3ncnc4sccc34)cc2)CC1 [Compound I-1]" result_type=pIC50 assay_value=7.46
compound="CN1CCN(Cc2ccc(NC(=O)c3n[nH]cc3Nc3ncnc4[nH]ccc34)cc2)CC1 [Compound I-11]" result_type=pIC50 assay_value=7.51

----------
PROCEDURE SUMMARY: Pharmacokinetics after single oral dose in rats
Type: in vivo, Wistar rat
COND: male, Wistar, plasma; rat, oral 30 mg/kg
RESULT TYPE: half-life (h)

smiles_input=O=C(Nc1ccc(CN2CCOCC2)cc1)c1n[nH]cc1Nc1ncnc2sccc12 assay_value=14.7
smiles_input=CN1CCN(Cc2ccc(NC(=O)c3n[nH]cc3Nc3ncnc4sccc34)cc2)CC1 assay_value=45.8

----------
PROCEDURE SUMMARY: Pharmacokinetics after single oral dose in rats
Format: in vivo, Wistar rat
COND: male, Wistar, rat, plasma, po, 30 mg/kg, rat No. 1-6, oral 30 mg/kg, time 8 h; read-out: Plasma concentration, individual rats
RESULT TYPE: concentration at 8 h (ng/mL)

smiles_input=CN1CCN(Cc2ccc(NC(=O)c3n[nH]cc3Nc3ncnc4sccc34)cc2)CC1 result_type="concentration at 8 h" assay_value=157

----------
Listing: pIC50 of selected compounds
TARGET DESC: FLT1/VEGFR1 (Homo sapiens, UniProt P17948)
Sequence (P17948 827-1158 limits assumed): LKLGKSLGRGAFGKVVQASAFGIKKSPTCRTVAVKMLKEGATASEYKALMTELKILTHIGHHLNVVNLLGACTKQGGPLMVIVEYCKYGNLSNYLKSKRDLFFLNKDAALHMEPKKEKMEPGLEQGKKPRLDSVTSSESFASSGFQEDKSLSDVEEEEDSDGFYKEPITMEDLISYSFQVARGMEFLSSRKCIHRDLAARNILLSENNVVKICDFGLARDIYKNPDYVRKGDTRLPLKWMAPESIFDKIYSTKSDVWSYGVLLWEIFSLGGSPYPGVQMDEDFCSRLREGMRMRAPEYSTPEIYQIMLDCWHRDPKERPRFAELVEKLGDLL
PROCEDURE SUMMARY: Kinase IC50, 33P labeled isotope method
Type: biochemical
COND: 20 μM ATP; read-out: IC50* FLT1/VEGFR1
pIC50: −log10 of the molar value.
RESULT TYPE: pIC50

compound="CN1CCN(Cc2ccc(NC(=O)c3n[nH]cc3Nc3ncnc4occc34)cc2)CC1 [Compound I-21]" target_desc="FLT1/VEGFR1 (Homo sapiens, UniProt P17948)" result_type=pIC50 assay_value=7.62
compound="Cc1cc2c(Nc3c[nH]nc3C(=O)Nc3ccc(CN4CCN(C)CC4)cc3)ncnc2[nH]1 [Compound I-13]" target_desc="FLT1/VEGFR1 (Homo sapiens, UniProt P17948)" result_type=pIC50 assay_value=7.64
compound="Cc1cc2c(Nc3c[nH]nc3C(=O)Nc3ccc(CN4CCN(C)CC4)cc3)ncnc2s1 [Compound I-3]" target_desc="FLT1/VEGFR1 (Homo sapiens, UniProt P17948)" result_type=pIC50 assay_value=7.72
compound="Cc1cc2c(Nc3c[nH]nc3C(=O)Nc3ccc(CN4CCN(C)CC4)cc3)nccc2s1 [Compound I-27]" target_desc="FLT1/VEGFR1 (Homo sapiens, UniProt P17948)" result_type=pIC50 assay_value=7.66

----------
Test system: Phytophthora infestans
Format: in vivo
COND: 0.0001 (unit not given)
RESULT TYPE: Severity of tomato leaf blight

smiles_input=Cc1cc2c(Nc3c[nH]nc3C(=O)Nc3ccc(CN4CCN(C)CC4)cc3)ncnc2[nH]1 result_type="Severity of tomato leaf blight" assay_value="++ (15-40% blight)"
smiles_input=CN1CCN(Cc2ccc(NC(=O)c3n[nH]cc3Nc3nccc4sccc34)cc2)CC1 result_type="Severity of tomato leaf blight" assay_value="++ (15-40% blight)"
smiles_input=Cc1c[nH]c2ncnc(Nc3c[nH]nc3C(=O)Nc3ccc(CN4CCN(C)CC4)cc3)c12 result_type="Severity of tomato leaf blight" assay_value="++ (15-40% blight)"

----------
Listing: concentration at 12 h of selected compounds
PROCEDURE SUMMARY: Pharmacokinetics after single oral dose in rats
Format: in vivo, Wistar rat
COND: male, Wistar, rat, plasma, po, 30 mg/kg, mean of rats, oral 30 mg/kg, time 12 h; read-out: Plasma concentration, mean
Experimental: 300 μL blood collected from the rat was mixed with 30 μL methanol and 2 mL ethyl acetate. The samples were vortexed for 3 min and centrifuged at 4000 rpm for 15 min. The supernatant was introduced into another centrifugal tube. […] An amount of compound was taken accurately to prepare CMC-Na aqueous solution containing 3 mg/mL of drug. […] 300 μL plasma was subjected to analysis and the chromatogram and peak area were recorded. […]
RESULT TYPE: concentration at 12 h (ng/mL)

smiles_input=CN1CCN(Cc2ccc(NC(=O)c3n[nH]cc3Nc3ncnc4sccc34)cc2)CC1 assay_value=134
smiles_input=O=C(Nc1ccc(CN2CCOCC2)cc1)c1n[nH]cc1Nc1ncnc2sccc12 assay_value=264

----------
PROCEDURE SUMMARY: Pharmacokinetics after single oral dose in rats
Format: in vivo, Wistar rat
COND: male, Wistar, rat, plasma, po, 30 mg/kg, rat No. 1-6, oral 30 mg/kg, time 1 h; read-out: Plasma concentration, individual rats
RESULT TYPE: concentration at 1 h (ng/mL)

smiles_input=CN1CCN(Cc2ccc(NC(=O)c3n[nH]cc3Nc3ncnc4sccc34)cc2)CC1 unit_descriptor=ng/mL assay_value=105

----------
Listing: logP at 72 h of selected compounds
PROCEDURE SUMMARY: Measurement of lipid-water partition coefficient (Log P)
Assay type: physicochemical
COND: n-octanol/distilled water, 25° C.
RESULT TYPE: logP at 72 h

compound="O=C(Nc1ccc(CN2CCOCC2)cc1)c1n[nH]cc1Nc1ncnc2sccc12 [Compound I-2]" result_type="logP at 72 h" assay_value=1.28
compound="CN1CCN(Cc2ccc(NC(=O)c3n[nH]cc3Nc3ncnc4sccc34)cc2)CC1 [Compound I-1]" result_type="logP at 72 h" assay_value=1.27

----------
TARGET DESC: CDK1/cyclin B (Homo sapiens, UniProt P06493)
Sequence (P06493 4-287 limits assumed): as the sequence (P06493 4-287 limits assumed) above
Sequence (P14635 whole entry partner): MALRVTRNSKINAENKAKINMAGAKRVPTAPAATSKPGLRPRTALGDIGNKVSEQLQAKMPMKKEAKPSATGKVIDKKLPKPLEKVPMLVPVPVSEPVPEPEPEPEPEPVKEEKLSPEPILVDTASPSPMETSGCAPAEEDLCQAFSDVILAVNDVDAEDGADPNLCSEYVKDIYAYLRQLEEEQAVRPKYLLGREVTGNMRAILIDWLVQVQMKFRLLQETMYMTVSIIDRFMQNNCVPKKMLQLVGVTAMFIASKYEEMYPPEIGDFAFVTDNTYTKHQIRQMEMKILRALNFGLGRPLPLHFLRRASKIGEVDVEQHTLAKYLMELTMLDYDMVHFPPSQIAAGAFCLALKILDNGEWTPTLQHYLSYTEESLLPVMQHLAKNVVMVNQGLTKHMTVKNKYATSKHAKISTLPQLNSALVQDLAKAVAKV
PROCEDURE SUMMARY: Kinase IC50, 33P labeled isotope method
Format: biochemical
pIC50: −log10 of the molar value.
RESULT TYPE: pIC50

smiles_input=CN1CCN(Cc2ccc(NC(=O)c3n[nH]cc3Nc3ncnc4[nH]ccc34)cc2)CC1 result_type=pIC50 assay_value=7.15

----------
Tested on: Phytophthora infestans
Assay type: in vivo
COND: 0.0001 (unit not given)
RESULT TYPE: Severity of tomato leaf blight

smiles_input=CN1CCN(Cc2ccc(NC(=O)c3n[nH]cc3Nc3ncnc4occc34)cc2)CC1 result_type="Severity of tomato leaf blight" assay_value="++++ (>60% blight)"
smiles_input=CN1CCN(Cc2ccc(NC(=O)c3n[nH]cc3Nc3nccc4ccsc34)cc2)CC1 result_type="Severity of tomato leaf blight" assay_value="+++ (40-60% blight)"
smiles_input=CN1CCN(Cc2ccc(NC(=O)c3n[nH]cc3Nc3ncnc4ccoc34)cc2)CC1 result_type="Severity of tomato leaf blight" assay_value="+++ (40-60% blight)"
smiles_input=CN1CCN(Cc2ccc(NC(=O)c3n[nH]cc3Nc3ncnc4cc[nH]c34)cc2)CC1 result_type="Severity of tomato leaf blight" assay_value="+++ (40-60% blight)"
smiles_input=CN1CCN(Cc2ccc(NC(=O)c3n[nH]cc3Nc3ncnc4[nH]ccc34)cc2)CC1 result_type="Severity of tomato leaf blight" assay_value="+++ (40-60% blight)"
smiles_input=CN1CCN(Cc2ccc(NC(=O)c3n[nH]cc3Nc3ncnc4sccc34)cc2)CC1 result_type="Severity of tomato leaf blight" assay_value="+++ (40-60% blight)"
smiles_input=Cc1cc2c(Nc3c[nH]nc3C(=O)Nc3ccc(CN4CCN(C)CC4)cc3)nccc2s1 result_type="Severity of tomato leaf blight" assay_value="++++ (>60% blight)"

----------
TARGET DESC: CDK3/cyclin E (Homo sapiens)
Sequence (Q00526 4-286 limits assumed): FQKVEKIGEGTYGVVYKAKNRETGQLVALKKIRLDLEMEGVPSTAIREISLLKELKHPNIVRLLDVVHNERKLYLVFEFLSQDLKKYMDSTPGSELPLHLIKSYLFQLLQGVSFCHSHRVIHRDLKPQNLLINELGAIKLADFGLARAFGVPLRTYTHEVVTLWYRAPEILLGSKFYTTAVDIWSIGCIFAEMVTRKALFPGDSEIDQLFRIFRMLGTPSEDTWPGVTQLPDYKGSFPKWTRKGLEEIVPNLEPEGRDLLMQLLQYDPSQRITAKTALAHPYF
Sequence (P24864 whole entry partner): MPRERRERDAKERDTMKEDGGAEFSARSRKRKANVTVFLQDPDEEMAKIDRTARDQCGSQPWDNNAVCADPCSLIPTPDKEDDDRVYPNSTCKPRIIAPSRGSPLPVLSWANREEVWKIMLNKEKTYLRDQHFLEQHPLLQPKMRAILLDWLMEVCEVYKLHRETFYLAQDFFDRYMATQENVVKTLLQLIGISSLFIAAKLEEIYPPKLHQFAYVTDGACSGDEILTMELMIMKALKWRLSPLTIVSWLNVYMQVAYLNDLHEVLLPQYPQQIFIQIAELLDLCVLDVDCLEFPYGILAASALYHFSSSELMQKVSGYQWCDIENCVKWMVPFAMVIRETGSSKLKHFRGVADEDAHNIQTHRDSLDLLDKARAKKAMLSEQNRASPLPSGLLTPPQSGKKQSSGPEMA
PROCEDURE SUMMARY: Kinase IC50, 33P labeled isotope method
Format: biochemical
COND: 20 μM ATP; read-out: IC50* CDK3/cyclin E
pIC50: −log10 of the molar value.
Listing: pIC50 of selected molecules
RESULT TYPE: pIC50

smiles_input=Cc1cc2c(Nc3c[nH]nc3C(=O)Nc3ccc(CN4CCN(C)CC4)cc3)ncnc2[nH]1 assay_value=6.72
smiles_input=CN1CCN(Cc2ccc(NC(=O)c3n[nH]cc3Nc3ncnc4occc34)cc2)CC1 assay_value=6.68
smiles_input=Cc1cc2c(Nc3c[nH]nc3C(=O)Nc3ccc(CN4CCN(C)CC4)cc3)nccc2s1 assay_value=6.70
smiles_input=Cc1cc2c(Nc3c[nH]nc3C(=O)Nc3ccc(CN4CCN(C)CC4)cc3)ncnc2s1 assay_value=6.77
